Tested on: UACC-257 melanoma
PROTOCOL: NCI tumour cell line growth inhibition, 48 h
Could you please report measured TGI for the items listed next?
Quick note: give the figure in µM, leave out the unit.

Q. I'd like to know its TGI. The compound in question is CC(C)(C)N(Cc1ccoc1)C(=O)/C=C\S(=O)c1ccccc1 (stereo not given)
A. 46.1

Q. Consider the compound CC1=C(C(=O)Nc2ccc(F)c(Cl)c2)C(c2cccc(Oc3ccccc3)c2)NC(=O)N1 (stereo not given) and give its measured TGI.
A. 34.9

###

Tested on: OVCAR-4 ovarian
PROTOCOL: NCI tumour cell line growth inhibition, 48 h
REPORTED_PROPERTY: GI50

Q. Request body: readout GI50, system OVCAR-4 ovarian, query O=C(CCCCCCC(=O)Nc1ccc2c(c1)/C(=C/c1ccc[nH]1)C(=O)N2)NO . Return the value.
A. 1.27 µM

Q. Short answer please: GI50, OVCAR-4 ovarian, entry C=C1CC[C@@H]2[C@](C)(COC(C)=O)[C@H](OC(C)=O)CC[C@@]2(C)[C@@H]1C/C=C1/C(=O)OC[C@H]1OC(C)=O
A. 3.57 µM

Q. Reported GI50 for OVCAR-4 ovarian, given OCCNCCNc1c2ccccc2nc2oc3ccccc3c12 ?
A. 10.2 µM

Q. Lab request: please report GI50 under test system OVCAR-4 ovarian for O=Cc1ccc(O)c2ncccc12
A. 2.91 µM

Q. Param readout = GI50; param system = OVCAR-4 ovarian; param query = CN(C)CCNC(=O)c1cc2c3ccccc3[nH]c2c2ncccc12 ; response: value
A. 8.48 µM

Q. Recall the recorded GI50 for O=C(N/N=C\c1ccc(N(CCCl)CCCl)cc1Cl)c1cccnc1 with OVCAR-4 ovarian and state it.
A. 5.28 µM

Q. Under OVCAR-4 ovarian: GI50 value of COC(=O)[C@@]1(O)C[C@H]2O[C@]1(C)n1c3ccccc3c3c4c(c5c6ccccc6n2c5c31)C(=O)NC4 ?
A. 1.24 µM

Q. // map C[CH2][Sn]([Cl])([Cl])[CH2]C to recorded GI50 (system: OVCAR-4 ovarian)
A. > 100 µM

Q. Entry CC1/C(=N/Nc2ccc([N+](=O)[O-])cc2)CC2C3(C)CCC2(C(C)C(=O)O)C(=O)C13 (stereo unspecified) , system OVCAR-4 ovarian: what GI50 was measured?
A. > 100 µM

Q. What reported GI50 corresponds to C=CC(=O)Nc1cccc(C)c1Nc1ncc2cc(-c3c(Cl)c(OC)cc(OC)c3Cl)ccc2n1 on OVCAR-4 ovarian?
A. 3.47 µM

Q. Provide the documented GI50 with OVCAR-4 ovarian as the system for N#CC1=C(N)Oc2c(sc3c(F)cccc23)C1c1ccc(F)cc1 (stereo unspecified)
A. 2.03 µM

Q. What measured GI50 is associated with NCCCCN(Cc1nc2ccccc2[nH]1)[C@H]1CCCc2cccnc21 on OVCAR-4 ovarian?
A. 10.6 µM

Q. Form field: GI50 recorded for C=C1C(=O)O[C@H]2[C@H]1CC/C(CNS(=O)(=O)c1cccc3ccccc13)=C\CC[C@@]1(C)O[C@@H]21 with OVCAR-4 ovarian (enter value)
A. 1.72 µM

Q. Enter reported GI50 observed with OVCAR-4 ovarian for COc1cc([N+](=O)[O-])c(OC)cc1-c1nc2sc(Cl)cn2c1/C=N/NC(=N)N/N=C/c1c(-c2cc(OC)c([N+](=O)[O-])cc2OC)nc2sc(Cl)cn12
A. 2.42 µM

Q. Form: Entry = CCCCCCCCCCCC[n+]1ccc(C(N)=O)cc1 | System = OVCAR-4 ovarian | GI50 = ____
A. 4.73 µM

Q. Any idea what GI50 came out for N=C(N)c1ccc(-c2ccc(-c3cccs3)s2)nc1 on OVCAR-4 ovarian?
A. 0.944 µM

// data source = PubChem BioAssay (NCI)
